# Experimental system: KDR kinase (Homo sapiens, UniProt P35968, DEL940-989/E990V)
# Sequence (P35968 with tags, fused parts or gaps DEL940-989/E990V): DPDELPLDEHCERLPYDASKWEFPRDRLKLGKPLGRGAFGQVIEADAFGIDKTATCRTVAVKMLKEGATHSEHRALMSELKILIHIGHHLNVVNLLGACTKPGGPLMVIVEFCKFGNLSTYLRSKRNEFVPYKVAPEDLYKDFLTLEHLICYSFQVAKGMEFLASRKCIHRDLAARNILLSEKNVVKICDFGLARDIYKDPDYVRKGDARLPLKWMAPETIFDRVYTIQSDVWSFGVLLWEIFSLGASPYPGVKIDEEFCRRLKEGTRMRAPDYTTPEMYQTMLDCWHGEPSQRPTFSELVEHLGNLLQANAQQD
# Method notes: KDR kinase assay K2 (as K1, 2.1 nM enzyme, 2 h pre-incubation, 1.0 mM ATP)
# Type: biochemical
# Stated conditions: Method K2; read-out: KDR Data (IC50)
pIC50: −log10 of the molar value.
Lab note: compare pIC50 against 6. Equal or greater, write T. Smaller, write F.

Prompt: Check the entry COc1ccc(-n2nc(C(C)(C)C)cc2NC(=O)Nc2cccc(Cl)c2Cl)cc1 [Example 18] : does pIC50 equal or exceed 6?
Response: T

Prompt: Please check the record CC(C)(C)c1cc(NC(=O)Nc2ccc(Cl)cc2)n(-c2cccc(CNC(=O)N3CCOCC3)c2)n1 [Example 343] and state if its pIC50 is at or above 6.
Response: F

Prompt: Does pIC50 meet or surpass 6 for CC(C)(C)c1cc(NC(=O)Nc2cccc(Oc3cccnc3)c2)n(-c2cccc(-c3cccnc3)c2)n1 [Example 277] ?
Response: T

Prompt: // inclusive: pIC50 at least 6? input: CC(C)(C)c1cc(NC(=O)Nc2ccc(F)cc2F)n(-c2ccc3c(c2)CCN(S(C)(=O)=O)C3)n1 [Example 200]
Response: F

Prompt: Does the reported pIC50 for CC(C)(C)c1cc(NC(=O)Nc2cccc(Cl)c2Cl)n(-c2cccc(CC(=O)N3CCC[C@@H]3C(=O)O)c2)n1 [Example 400] fall at or above the 6 mark?
Response: F

Prompt: Reported pIC50 at or above 6? COc1ccc(-n2nc(C(C)(C)C)cc2NC(=O)Nc2cccc(Cl)c2)cc1 [Example 240]
Response: F

Prompt: # bool: pIC50 of CC(C)(C)c1cc(NC(=O)Nc2cccc3ccccc23)n(-c2ccc3c(c2)C(=O)NCC3)n1 [Example 348] >= 6
Response: F

Prompt: Could you tell me if the measured pIC50 of CC(C)(C)c1cc(NC(=O)Nc2cc(F)c(F)cc2F)n(-c2ccc3c(c2)CCN3S(C)(=O)=O)n1 [Example 110] reaches 6 or more?
Response: T

Prompt: Decide: is the reported value of pIC50 for CC(C)(C)c1cc(NC(=O)Nc2cccc(Oc3cccnc3)c2)n(-c2ccc3[nH]c(=O)ccc3c2)n1 [Example 156] equal to or greater than 6?
Response: T

Prompt: Kindly determine if pIC50 recorded for COc1cccc(-n2nc(C(C)(C)C)cc2NC(=O)Nc2ccc(Cl)c(Cl)c2)c1 [Example 337] is above or exactly 6.
Response: F

Prompt: For this molecule, is measured pIC50 6 or higher? CC(C)(C)c1cc(NC(=O)Nc2cccc(Cl)c2Cl)n(-c2ccc(CC(=O)N3CCC(C(=O)O)CC3)cc2)n1 [Example 498]
Response: F

Prompt: Check the entry CC(C)(C)c1cc(NC(=O)Nc2cc(F)ccc2F)n(-c2cccc(C#N)c2)n1 [Example 213] : does pIC50 equal or exceed 6?
Response: T

Prompt: hey, is pIC50 for this one >= 6? CC(C)(C)c1cc(NC(=O)Nc2ccccc2F)n(-c2cccc(CCC(=O)O)c2)n1 [Example 265]
Response: F

Prompt: I'd appreciate it if you could say whether CC(C)(C)c1cc(NC(=O)Nc2cc(F)c(F)cc2F)n(-c2ccc3[nH]c(=O)ccc3c2)n1 [Example 330] has pIC50 at least equal to 6.
Response: T

Prompt: Confirm if pIC50 reported for the molecule CC(C)(C)c1cc(NC(=O)Nc2cccc(F)c2F)n(-c2ccc(CC(=O)O)cc2)n1 [Example 382] is 6 or above.
Response: F

Prompt: For this molecule, is measured pIC50 6 or higher? CC(C)(C)c1cc(NC(=O)Nc2cccc(Cl)c2Cl)n(-c2ccc3ncccc3c2)n1 [Example 52]
Response: T

Prompt: Threshold query (pIC50 >= 6) on CCOC(=O)C1CCCN(C(=O)Cc2ccc(-n3nc(C(C)(C)C)cc3NC(=O)Nc3cccc(Cl)c3Cl)cc2)C1 (stereo not shown) [Example 346]
Response: F

Prompt: Tell me whether pIC50 is at least 6 here: CC(C)(C)c1cc(NC(=O)Nc2cccc(F)c2F)n(-c2ccc(CCO)cc2)n1 [Example 262]
Response: F

Prompt: Is reported pIC50 greater than or equal to 6 here: CC(C)(C)c1cc(NC(=O)Nc2ccc(Cl)cc2)n(-c2cccc(CCO)c2)n1 [Example 342]
Response: F

Prompt: Record CC(C)(C)c1cc(NC(=O)Nc2cccc(Cl)c2Cl)n(-c2cccc(CC(=O)N3CCS(=O)(=O)CC3)c2)n1 [Example 396] ; criterion: pIC50 no lower than 6. Met?
Response: F

Prompt: Is the recorded value of pIC50 equal to or greater than 6 for this molecule? CC(C)(C)c1cc(NC(=O)Nc2cccc(Oc3cccnc3)c2)n(-c2ccc3[nH]ccc3c2)n1 [Example 116]
Response: T

Prompt: Tell me whether pIC50 is at least 6 here: CC(C)(C)c1cc(NC(=O)Nc2cccc(Oc3cccnc3)c2)n(-c2ccc3c(c2)CC(C(N)=O)NC3)n1 (stereo not shown) [Example 179]
Response: T

Prompt: Has CC(C)(C)c1cc(NC(=O)Nc2cccc(Cl)c2Cl)n(-c2ccc3c(c2)CCN3S(C)(=O)=O)n1 [Example 108] a recorded pIC50 greater than or equal to 6?
Response: T

Prompt: Decide: is the reported value of pIC50 for CC(C)(C)c1cc(NC(=O)Nc2cccc3ccccc23)n(-c2ccc3c(c2)CNCC3)n1 [Example 349] equal to or greater than 6?
Response: F

Prompt: Determine whether this molecule has pIC50 no lower than 6: Cn1ccc2cc(-n3nc(C(C)(C)C)cc3NC(=O)Nc3cccc(Cl)c3Cl)ccc21 [Example 117]
Response: T

Prompt: Hello, I need to know if COc1cccc(-n2nc(C(C)(C)C)cc2NC(=O)Nc2cccc(F)c2F)c1 [Example 236] has measured pIC50 not below 6. Thanks!
Response: F

Prompt: Hi team, for CC(C)(C)c1cc(NC(=O)Nc2ccc(F)c(F)c2)n(-c2cccc(C#N)c2)n1 [Example 206] , is the recorded pIC50 at or above 6?
Response: T

Prompt: Quick check, pIC50 >= 6? COc1ccc(-n2nc(C(C)(C)C)cc2NC(=O)Nc2ccccc2F)cc1 [Example 237]
Response: F
